Tested on: ATP;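 note: ATP exposure 15 min at 22 °C before imaging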
Test: switch fluorescence ratio, 500 uM ATP over buffer (Cy3 cluster intensity, sum of 5 cycles each) (fold (ratio)); higher = stronger signal-on switching upon ATP binding; sequences stand for … in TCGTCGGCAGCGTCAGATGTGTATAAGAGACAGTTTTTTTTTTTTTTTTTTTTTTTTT…TC
Details: aptamer strand: ATP DNA aptamer (quencher-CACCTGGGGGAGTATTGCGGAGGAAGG + anchor), 100 nM annealed; ATP concentration: 500 uM
Recorded metric: switch fluorescence ratio

record_sequence=GCCTGAGGGA recorded_metric="switch fluorescence ratio" numeric_value=1.05
record_sequence=TGGGGGCTT recorded_metric="switch fluorescence ratio" numeric_value=1.03
record_sequence=TGGGGATCTC recorded_metric="switch fluorescence ratio" numeric_value=1.01
record_sequence=AGGGACTGAC recorded_metric="switch fluorescence ratio" numeric_value=1.24
record_sequence=ATTATATGCG recorded_metric="switch fluorescence ratio" numeric_value=0.992
record_sequence=AATTTGAGGA recorded_metric="switch fluorescence ratio" numeric_value=0.972
record_sequence=TTATAGGGGA recorded_metric="switch fluorescence ratio" numeric_value=0.998
record_sequence=AGGCGGGGTA recorded_metric="switch fluorescence ratio" numeric_value=0.985
record_sequence=TTGGAAAATG recorded_metric="switch fluorescence ratio" numeric_value=1.02
record_sequence=GCACAAGATG recorded_metric="switch fluorescence ratio" numeric_value=1.01
record_sequence=GGGGCAGAAA recorded_metric="switch fluorescence ratio" numeric_value=1.26
record_sequence=AAGATATGAT recorded_metric="switch fluorescence ratio" numeric_value=0.989
record_sequence=AGGATGGGG recorded_metric="switch fluorescence ratio" numeric_value=0.974
record_sequence=GCATGGTAGC recorded_metric="switch fluorescence ratio" numeric_value=0.994
record_sequence=CATTTGAATT recorded_metric="switch fluorescence ratio" numeric_value=0.973
record_sequence=GAGGCTAGTG recorded_metric="switch fluorescence ratio" numeric_value=0.988
record_sequence=CAATTAGGTC recorded_metric="switch fluorescence ratio" numeric_value=0.994
record_sequence=TTGCGGCGCT recorded_metric="switch fluorescence ratio" numeric_value=1.01
record_sequence=ACTAGCTGTA recorded_metric="switch fluorescence ratio" numeric_value=0.982
record_sequence=GGTTATGGGA recorded_metric="switch fluorescence ratio" numeric_value=0.996
record_sequence=TTCAATGGTT recorded_metric="switch fluorescence ratio" numeric_value=1.02
record_sequence=AAGTTTTTAT recorded_metric="switch fluorescence ratio" numeric_value=0.971
record_sequence=GTCGAAAGGA recorded_metric="switch fluorescence ratio" numeric_value=0.963
record_sequence=GATGGCCGCG recorded_metric="switch fluorescence ratio" numeric_value=1.03
record_sequence=GGAGTTTGAC recorded_metric="switch fluorescence ratio" numeric_value=1.05
record_sequence=AGGCGCAGGG recorded_metric="switch fluorescence ratio" numeric_value=0.998
record_sequence=TGTTTTTTAA recorded_metric="switch fluorescence ratio" numeric_value=0.99
record_sequence=ACTTAATCGT recorded_metric="switch fluorescence ratio" numeric_value=1.02
record_sequence=GCTTCAAGTT recorded_metric="switch fluorescence ratio" numeric_value=0.985
record_sequence=TGGGTTTTTC recorded_metric="switch fluorescence ratio" numeric_value=0.968
record_sequence=ATCGGTATAT recorded_metric="switch fluorescence ratio" numeric_value=1.02
record_sequence=TGAGAGTGCG recorded_metric="switch fluorescence ratio" numeric_value=0.968
record_sequence=AGTACGGGGA recorded_metric="switch fluorescence ratio" numeric_value=1.04
record_sequence=AGAAAATTCG recorded_metric="switch fluorescence ratio" numeric_value=0.981
record_sequence=ATCCTAAGGC recorded_metric="switch fluorescence ratio" numeric_value=1
record_sequence=GCTTGCGGTC recorded_metric="switch fluorescence ratio" numeric_value=0.987
record_sequence=TCATGGCCAG recorded_metric="switch fluorescence ratio" numeric_value=1.04
record_sequence=TTAAGATTTA recorded_metric="switch fluorescence ratio" numeric_value=0.993
record_sequence=TAGCTGAGAC recorded_metric="switch fluorescence ratio" numeric_value=1.16
record_sequence=GAATGGGTAT recorded_metric="switch fluorescence ratio" numeric_value=0.979
record_sequence=TGCGGACAA recorded_metric="switch fluorescence ratio" numeric_value=0.995
record_sequence=CCAGTATCTG recorded_metric="switch fluorescence ratio" numeric_value=0.998
record_sequence=ACGCCCTCCC recorded_metric="switch fluorescence ratio" numeric_value=2.02
record_sequence=GGAGACGGGG recorded_metric="switch fluorescence ratio" numeric_value=0.989
record_sequence=GCGTTTGTGG recorded_metric="switch fluorescence ratio" numeric_value=1
record_sequence=TTAGGCAGTA recorded_metric="switch fluorescence ratio" numeric_value=1.01
record_sequence=GATAATAGGT recorded_metric="switch fluorescence ratio" numeric_value=0.993
record_sequence=ACTGGAAGTC recorded_metric="switch fluorescence ratio" numeric_value=0.988
record_sequence=GTGATGGTT recorded_metric="switch fluorescence ratio" numeric_value=0.984
record_sequence=TTAACCCGCC recorded_metric="switch fluorescence ratio" numeric_value=1.16
record_sequence=CGCGAGGGCC recorded_metric="switch fluorescence ratio" numeric_value=1.1
record_sequence=TTGCGTGTGA recorded_metric="switch fluorescence ratio" numeric_value=1.01
record_sequence=GCTCAAGTGC recorded_metric="switch fluorescence ratio" numeric_value=1.07
record_sequence=GTCATAGTGG recorded_metric="switch fluorescence ratio" numeric_value=0.98
record_sequence=TACAGCTGGG recorded_metric="switch fluorescence ratio" numeric_value=1.01
record_sequence=TTAGTTTTTG recorded_metric="switch fluorescence ratio" numeric_value=0.98
record_sequence=GCGCGCTAGT recorded_metric="switch fluorescence ratio" numeric_value=1.01
record_sequence=ACCTGGATTG recorded_metric="switch fluorescence ratio" numeric_value=1.03
record_sequence=TTTTTAGCCG recorded_metric="switch fluorescence ratio" numeric_value=1.04
record_sequence=TCTTTTGGAT recorded_metric="switch fluorescence ratio" numeric_value=0.994
record_sequence=GTAGGCATGG recorded_metric="switch fluorescence ratio" numeric_value=1
record_sequence=AAACTGGGGG recorded_metric="switch fluorescence ratio" numeric_value=1.01
record_sequence=TGGGATTATT recorded_metric="switch fluorescence ratio" numeric_value=1.02
record_sequence=TTTGTCGATA recorded_metric="switch fluorescence ratio" numeric_value=1.05
record_sequence=CGTTCACCTG recorded_metric="switch fluorescence ratio" numeric_value=0.996
record_sequence=TTTGAGATGT recorded_metric="switch fluorescence ratio" numeric_value=1.04
record_sequence=ACGGTATTTT recorded_metric="switch fluorescence ratio" numeric_value=1.09
record_sequence=TCATTGGGTT recorded_metric="switch fluorescence ratio" numeric_value=0.977
record_sequence=AAATTGCGAG recorded_metric="switch fluorescence ratio" numeric_value=1
record_sequence=AAATGCTACT recorded_metric="switch fluorescence ratio" numeric_value=1.02
record_sequence=GGGAAGGCGT recorded_metric="switch fluorescence ratio" numeric_value=1.12
record_sequence=TATTGGGAAA recorded_metric="switch fluorescence ratio" numeric_value=1.06
record_sequence=AGGCTTTTAT recorded_metric="switch fluorescence ratio" numeric_value=1.01
record_sequence=GCGGGATACA recorded_metric="switch fluorescence ratio" numeric_value=1.07
record_sequence=TTCCTGGTGG recorded_metric="switch fluorescence ratio" numeric_value=1.05
record_sequence=AGGAGGGGGT recorded_metric="switch fluorescence ratio" numeric_value=0.991
record_sequence=GATTCCAAAA recorded_metric="switch fluorescence ratio" numeric_value=0.975

* * *

Test system: ATP;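 note: ATP exposure 15 min at 22 °C before imaging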
Assay: switch fluorescence ratio, 500 uM ATP over buffer (Cy3 cluster intensity, sum of 5 cycles each) (fold (ratio)); higher = stronger signal-on switching upon ATP binding; sequences stand for … in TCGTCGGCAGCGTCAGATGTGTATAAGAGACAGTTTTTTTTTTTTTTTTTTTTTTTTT…TC
Conditions: aptamer strand: ATP DNA aptamer (quencher-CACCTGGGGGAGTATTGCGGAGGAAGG + anchor), 100 nM annealed; ATP concentration: 500 uM
Recorded switch fluorescence ratio by entry
Recorded metric: switch fluorescence ratio

record_sequence=TCTAATTGTT numeric_value=0.999
record_sequence=ATTATATTTA numeric_value=1.02
record_sequence=GCGGTAGGTT numeric_value=1.01
record_sequence=GAATGAGATT numeric_value=1
record_sequence=GCTACAGGTT numeric_value=1.01
record_sequence=TTAAGGTTAG numeric_value=0.976
record_sequence=TTGTTTCATG numeric_value=1.01
record_sequence=GGGCGCCTAA numeric_value=1
record_sequence=GGGTGGGGTA numeric_value=0.971
record_sequence=TTTAGTTGTA numeric_value=1.02
record_sequence=TTGATCGATG numeric_value=0.989
record_sequence=AGTAAGTCGG numeric_value=0.975
record_sequence=TCGTTAATGA numeric_value=1.02
record_sequence=AGGGATTAGG numeric_value=0.99
record_sequence=GATTATAATC numeric_value=1.01
record_sequence=TTGCTTAAGG numeric_value=0.997
record_sequence=GTTTTGGGCT numeric_value=1.01
record_sequence=GTAGTACCGG numeric_value=1.02
record_sequence=CGTTGTAAAT numeric_value=0.982
record_sequence=CGAGTATGGA numeric_value=0.992
record_sequence=TCCGTTTTGA numeric_value=1
record_sequence=ACGTGCTTTT numeric_value=0.999
record_sequence=CTGGCCTTTG numeric_value=0.983
record_sequence=GGAAATCACA numeric_value=1.01
record_sequence=AAGATTGTTT numeric_value=0.986
record_sequence=TTTTACAGTT numeric_value=1.02
record_sequence=CTTGGAAGGG numeric_value=0.968
record_sequence=AAGGCGAGGT numeric_value=0.994
record_sequence=CCTTTTTATG numeric_value=1.02
record_sequence=AGCTACGTTT numeric_value=0.996
record_sequence=TTTTGGGACT numeric_value=1.03
record_sequence=GATTTATAGG numeric_value=0.972
record_sequence=AAATTTTTTT numeric_value=0.996
record_sequence=CATGTTTTGC numeric_value=1.01
record_sequence=GGGGTAGAAC numeric_value=0.992
record_sequence=CTAGAAGGCG numeric_value=1.02
record_sequence=TATAGCATCT numeric_value=1.05
record_sequence=ACCATAGGCT numeric_value=1.01
record_sequence=CGCCTGGCTT numeric_value=1
record_sequence=CCGAGTTAAG numeric_value=1.08
record_sequence=GGCGCAGTTC numeric_value=1.37
record_sequence=GGGGGTGGAA numeric_value=0.97
record_sequence=GGTAGAAGCG numeric_value=1.02
record_sequence=TTGGATGTGA numeric_value=0.962
record_sequence=GATGTTTCAT numeric_value=0.979
record_sequence=AGCGTAGAGC numeric_value=1.03
record_sequence=AGGTCGGCA numeric_value=0.992
record_sequence=TTAAGCGGCG numeric_value=0.992
record_sequence=AGAATATCGT numeric_value=0.984
record_sequence=AAGCTGAGAA numeric_value=1.02
record_sequence=TAATCTGGCT numeric_value=0.993
record_sequence=GGGAAATATG numeric_value=1.01
record_sequence=TACAAGGGAT numeric_value=0.983
record_sequence=TTGGCACCCG numeric_value=1.04
record_sequence=TTGCAAGGGC numeric_value=1.08
record_sequence=TGATATTATT numeric_value=1.02
record_sequence=AGATTCAGAA numeric_value=0.947
record_sequence=CGAGAATTGT numeric_value=0.93
record_sequence=GACCTATTCG numeric_value=1.01
record_sequence=GGGGGGTATG numeric_value=0.982
record_sequence=GAGGGGTGTA numeric_value=0.99
record_sequence=AGGGTCGCTG numeric_value=1.02
record_sequence=CAACCTGAAC numeric_value=2.39
record_sequence=TTACTTTCCT numeric_value=1.12
record_sequence=GGGGATATAT numeric_value=1
record_sequence=CAGTCGAGTT numeric_value=1
record_sequence=CTGCTAGGGG numeric_value=1.04
record_sequence=TTCCGGCTTT numeric_value=1.01
record_sequence=ACCATGGGAT numeric_value=1.02
record_sequence=GACATGATGT numeric_value=1.03
record_sequence=CTTGTTGCCG numeric_value=1.01

Every entry's value here was drawn from the supplement of paper PMC10126150.
